Data credit: ChEMBL document CHEMBL1201862

Could you please report measured GI50 for the items listed next?
test system: SK-MEL-5; test: NCI tumour cell line growth inhibition, 48 h
The source made the active and inactive calls. Rule as the data show it: active = GI50 up to about 1.1 µM and inactive = higher.

The following molecules have reported results that may help.
CC(C)=C[C@H]1CCC2(OCCO2)[C@]1(C)CO : > 100 µM (inactive)
CCC(C)(C)NS(=O)(=O)c1ccccc1 : > 100 µM (inactive)
CCOC(=O)C1C(C)C2(C#N)C(=N)OC1(C)C2(C#N)C#N (stereo unspecified) : 41.4 µM (inactive)
Cc1ccc(S(=O)(=O)Nc2cccc3c(=O)nc[nH]c23)cc1 : 43.9 µM (inactive)
O=C1CSC(c2cccc(Oc3ccccc3)c2)N1c1cccc(Cl)c1Cl (stereo unspecified) : 18.4 µM (inactive)

# per-item lookup of GI50; items listed below
1. NC(Cc1ccc(OCc2ccccc2)cn1)C(=O)OCc1ccccc1 (stereo unspecified)
2. CN(C)CC/C(=N\Nc1ccccc1)c1ccccc1
3. O=[N+]([O-])c1cccc(/N=N/c2c(O)ccc3ccccc23)c1
4. COC(=O)Cc1c([C@@]2(C)CCCC(C)(C)C2)ccc2c1C(=O)OC2
5. CSc1nc2c(c(N3CCOCC3)n1)C(O)n1c(nc3ccccc31)S2 (stereo unspecified)
6. CCOC(=O)C(NC(=O)C(CCCCNP(=O)(OCC)OCC)NC(=O)C(C)NC(C)=O)C(C)C (stereo unspecified)

Ans.
1: > 100 µM (inactive); 2: 17.7 µM (inactive); 3: 75.7 µM (inactive); 4: 7.36 µM (inactive); 5: 3.23 µM (inactive); 6: > 100 µM (inactive)
